The reported measurements were obtained from patent US20240254095A1.

# Test Target: human NMDA receptors GluN1 and GluN2A subunits (GluN2A-containing NMDAR) (Homo sapiens, UniProt Q05586+Q12879)
# Construct: expressed in transfected cells; host or cells: HEK293 cells, transient liposome transfection of TRE-GluN1-GluN2A, tTA and pCAG-EGFP
# Sequence (Q12879 23-1464, other chains not shown): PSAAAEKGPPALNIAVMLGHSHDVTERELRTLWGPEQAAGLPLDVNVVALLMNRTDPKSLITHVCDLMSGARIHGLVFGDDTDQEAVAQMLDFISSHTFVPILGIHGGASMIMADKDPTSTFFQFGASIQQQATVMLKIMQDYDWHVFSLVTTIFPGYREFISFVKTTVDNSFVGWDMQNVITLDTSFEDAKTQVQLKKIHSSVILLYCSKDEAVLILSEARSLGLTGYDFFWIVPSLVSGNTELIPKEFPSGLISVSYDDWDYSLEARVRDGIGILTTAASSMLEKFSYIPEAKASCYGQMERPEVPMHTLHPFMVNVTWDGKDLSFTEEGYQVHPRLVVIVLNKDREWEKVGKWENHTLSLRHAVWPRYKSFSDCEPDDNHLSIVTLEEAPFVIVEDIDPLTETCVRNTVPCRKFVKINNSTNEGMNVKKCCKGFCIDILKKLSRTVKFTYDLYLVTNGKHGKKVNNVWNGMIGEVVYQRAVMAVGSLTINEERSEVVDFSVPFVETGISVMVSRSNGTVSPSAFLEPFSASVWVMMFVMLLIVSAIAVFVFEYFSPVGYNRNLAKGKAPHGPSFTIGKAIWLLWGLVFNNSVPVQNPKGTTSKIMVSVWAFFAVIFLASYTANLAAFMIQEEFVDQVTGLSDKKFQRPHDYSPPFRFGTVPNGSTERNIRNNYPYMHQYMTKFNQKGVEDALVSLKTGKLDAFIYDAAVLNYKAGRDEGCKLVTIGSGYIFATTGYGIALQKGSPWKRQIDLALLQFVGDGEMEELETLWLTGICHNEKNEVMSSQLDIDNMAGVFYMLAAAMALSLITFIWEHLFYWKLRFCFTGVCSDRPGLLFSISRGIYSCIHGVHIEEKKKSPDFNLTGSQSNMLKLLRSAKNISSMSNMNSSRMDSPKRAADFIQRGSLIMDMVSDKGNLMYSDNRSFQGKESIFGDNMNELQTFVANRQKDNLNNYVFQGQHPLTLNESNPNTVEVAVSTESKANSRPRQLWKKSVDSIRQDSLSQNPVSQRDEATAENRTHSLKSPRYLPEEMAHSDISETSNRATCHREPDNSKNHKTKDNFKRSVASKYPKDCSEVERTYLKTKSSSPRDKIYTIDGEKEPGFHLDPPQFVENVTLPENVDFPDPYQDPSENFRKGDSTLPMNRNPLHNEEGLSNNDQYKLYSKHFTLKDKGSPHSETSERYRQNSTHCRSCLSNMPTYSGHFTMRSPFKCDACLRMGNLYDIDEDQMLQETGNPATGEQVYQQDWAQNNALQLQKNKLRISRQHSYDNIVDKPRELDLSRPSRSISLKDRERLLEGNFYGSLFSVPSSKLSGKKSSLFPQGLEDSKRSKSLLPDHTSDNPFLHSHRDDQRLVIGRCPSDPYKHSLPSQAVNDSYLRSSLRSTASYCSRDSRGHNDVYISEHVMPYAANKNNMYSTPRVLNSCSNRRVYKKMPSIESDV
# Test: cell-based
# Particulars: NMDAR-mediated current, HEK293 cells expressing human GluN1/GluN2A, 100 μM glutamic acid, clamped at −70 mV; compound 10 μM; read-out: current inhibitory percentages
Structures can show the parent of a compound that is named as a salt.
Measured Parameter: inhibition at 10 µM (%)
Answers are plain numbers, in %.

{"Compound": "Clc1ccccc1C12CCCCC1OCCN2 (racemic) [Compound 11, formate]", "Quantity Unit": "%", "inhibition at 10 µM": 85}
{"Compound": "Clc1cccc([C@]23CCCC[C@H]2OCCN3)c1 [Compound 41, hydrochloride]", "Quantity Unit": "%", "inhibition at 10 µM": 92.9}
{"Compound": "c1ccc(C23CCCCC2OCCN3)cc1 (stereo not drawn) [Compound 1, hydrochloride]", "Quantity Unit": "%", "inhibition at 10 µM": 115}

Provide inhibition at 10 µM values for the following items, in order.
1. FC(F)(F)c1ccc(C23CCCCC2OCCN3)cc1 (stereo not drawn) [Compound 23, hydrochloride]
2. Cc1cccc(C)c1C12CCCCC1OCCN2 (stereo not drawn) [Compound 24, hydrochloride]
3. COc1ccccc1C12CCCCC1OCCN2 (stereo not drawn) [Compound 2, hydrochloride]
4. CC1CCCC2OCCNC12c1ccccc1 (stereo not drawn) [Compound 17, formate]
5. CC1CCC2(c3ccccc3)NCCOC2C1 (stereo not drawn) [Compound 18, formate]
6. CC1CCC2OCCNC2(c2ccccc2)C1 (stereo not drawn) [Compound 7, formate]

1: 9.25; 2: 73.7; 3: 56; 4: 86.6; 5: 84.4; 6: 86.4
